Origin of the recorded values: paper PMC7504735

test: in vitro
Assay type: cell-based
conditionInfo: human, Caco-2; 500 µM; read-out: Viability of Caco-2 cells (lowered to)
Measured viability at 48 h, 500 µM, listed per entry.

| compound | viability at 48 h, 500 µM |
| --- | --- |
| Cc1c(OCC(F)(F)F)ccnc1C[S+]([O-])c1nc2ccc([N+](=O)[O-])cc2[nH]1 (centres unmarked) | ~50% |
| O=[N+]([O-])c1ccc2nc([S+]([O-])Cc3ccccn3)[nH]c2c1 (centres unmarked) | ~50% |

* * *

testTarget: triosephosphate isomerase (TPI) (Giardia intestinalis)
Construct: His-tag (TEV-cleavable) (cleaved yes); made in house
Sequence (P36186 whole entry): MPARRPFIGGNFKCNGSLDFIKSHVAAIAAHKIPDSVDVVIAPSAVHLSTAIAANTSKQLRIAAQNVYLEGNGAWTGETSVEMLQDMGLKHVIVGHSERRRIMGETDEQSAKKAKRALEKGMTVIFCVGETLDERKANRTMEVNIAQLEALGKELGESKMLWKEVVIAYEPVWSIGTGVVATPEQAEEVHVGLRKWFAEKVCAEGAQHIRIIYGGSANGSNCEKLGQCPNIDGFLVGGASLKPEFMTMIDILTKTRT
test: Thermal stability of TPI by circular dichroism at 222 nm
conditionInfo: compound at its IC50 concentration, 2 h at 37 °C; TPI free of treatment 60.6 °C
Experimental: All spectroscopic assays were carried out at a protein concentration of 0.2 mg/mL. Changes in the secondary structure of proteins were monitored by circular dichroism (CD) in a Jasco-810 spectropolarimeter containing a thermostated Peltier-controlled cell holder. […] The unfolded fraction of enzyme and melting temperature (Tm) was determined as reported before. […]
Measured Tm of TPI enzyme incubated with compound, listed per entry.

| molecule | Tm of TPI enzyme incubated with compound |
| --- | --- |
| Cc1c(OCC(F)(F)F)ccnc1C[S+]([O-])c1nc2ccccc2[nH]1 (stereo not shown) [Lansoprazole, reference compound] | 60.2 °C |
| O=[N+]([O-])c1ccc2nc([S+]([O-])Cc3ccccn3)[nH]c2c1 (stereo not shown) [O2N-BZM7] | 57.5 °C |
| Cc1c(OCC(F)(F)F)ccnc1C[S+]([O-])c1nc2ccc([N+](=O)[O-])cc2[nH]1 (stereo not shown) [O2N-BZM9] | 58.4 °C |
| COc1c(C)cnc(C[S+]([O-])c2nc3ccccc3[nH]2)c1C (stereo not shown) [H-BZM2] | 59.9 °C |
